# target: T1, human CD19 (human, UniProt P15391 20-556)
# T1 construct: also called B-cell surface antigen B4; B-cell antigen CD19
# T1 sequence: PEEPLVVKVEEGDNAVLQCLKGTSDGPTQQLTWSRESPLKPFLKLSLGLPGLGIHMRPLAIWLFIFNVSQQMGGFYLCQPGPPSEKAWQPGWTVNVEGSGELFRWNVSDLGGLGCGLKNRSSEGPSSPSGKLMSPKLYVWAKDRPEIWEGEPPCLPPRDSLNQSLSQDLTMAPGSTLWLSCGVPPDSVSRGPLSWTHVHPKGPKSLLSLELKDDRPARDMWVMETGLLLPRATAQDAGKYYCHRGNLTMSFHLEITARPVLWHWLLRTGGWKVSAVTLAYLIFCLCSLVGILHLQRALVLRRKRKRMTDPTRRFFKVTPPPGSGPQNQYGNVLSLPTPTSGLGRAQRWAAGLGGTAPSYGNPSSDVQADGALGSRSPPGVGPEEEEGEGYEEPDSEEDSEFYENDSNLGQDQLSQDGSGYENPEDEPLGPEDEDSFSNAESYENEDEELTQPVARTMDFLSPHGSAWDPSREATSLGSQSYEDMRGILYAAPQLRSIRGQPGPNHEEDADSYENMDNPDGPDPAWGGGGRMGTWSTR
# experiment_description: DELFIA competition on Raji cells: unlabeled antibody competes with Eu-labeled anti-CD19 for surface CD19 [lower panel]
measured_endpoint: IC50 (read off the curve)

>  <binder>
H1L3 (antibody, V domains shown, also called 4G7 H1L3) VH: EVQLVESGGGLVKPGGSLKLSCAASGYTFTSYVMHWVRQAPGKGLEWIGYINPYNDGTKYNEKFQGRVTISSDKSISTAYMELSSLRSEDTAMYYCARGTYYYGSRVFDYWGQGTLVTVSS VL: DIVMTQSPATLSVSPGERATISCRSSKSLLNSNGNTYLYWFLQKPGQSPQLLIYRMSNLASGVPDRFSGSGSGTDFTLTISRVEAEDVGVYYCMQHLEYPFTFGAGTKLEIK

>  <result>
~20 nM

$$$$
>  <binder>
H3L2 (antibody, V domains shown, also called 4G7 H3L2) VH: EVQLVESGGGLVQPGRSLRLSCAASGYTFTSYVMHWVRQMPGKGLEWMGYINPYNDGTKYNEKFQGRVTITSDKSTSTAYMELSRLRSDDTAVYYCARGTYYYGSRVFDYWGQGTLVTVSS VL: DIVMTQSPSSLSASVGDRVTISCRSSKSLLNSNGNTYLYWFQQKPGQSPQLLIYRMSNLASGVPDRFSGSGSGTEFTLTISSLQPEDVAVYYCMQHLEYPFTFGAGTKLEIK

>  <result>
~10 nM

$$$$
>  <binder>
H0L0 (antibody, original 4G7 variable regions; also called 4G7 H0L0) heavy chain: EVQLQQSGPELIKPGASVKMSCKASGYTFTSYVMHWVKQKPGQGLEWIGYINPYNDGTKYNEKFKGKATLTSDKSSSTAYMELSSLTSEDSAVYYCARGTYYYGSRVFDYWGQGTTLTVSS light chain: DIVMTQAAPSIPVTPGESVSISCRSSKSLLNSNGNTYLYWFLQRPGQSPQLLIYRMSNLASGVPDRFSGSGSGTAFTLRISRVEAEDVGVYYCMQHLEYPFTFGAGTKLELK

>  <result>
~8 nM

$$$$
>  <binder>
H4L0 (antibody, V domains shown, also called 4G7 H4L0) VH: EVQLQQSGPEVKKPGTSVKVSCKASGYTFTSYVMHWVRQAPGKGLVWVSYINPYNDGTKYNESLKSRVTISSDKSISTAYLQMNSLRAEDTAVYYCARGTYYYGSRVFDYWGQGTLVTVSS VL: DIVMTQAAPSIPVTPGESVSISCRSSKSLLNSNGNTYLYWFLQRPGQSPQLLIYRMSNLASGVPDRFSGSGSGTAFTLRISRVEAEDVGVYYCMQHLEYPFTFGAGTKLELK

>  <result>
~10 nM

$$$$

Note: attention shifts to another entry.
// IC50 (read off the curve) lookup, binder = H3L3 (antibody, V domains shown, also called 4G7 H3L3) VH: EVQLVESGGGLVQPGRSLRLSCAASGYTFTSYVMHWVRQMPGKGLEWMGYINPYNDGTKYNEKFQGRVTITSDKSTSTAYMELSRLRSDDTAVYYCARGTYYYGSRVFDYWGQGTLVTVSS VL: DIVMTQSPATLSVSPGERATISCRSSKSLLNSNGNTYLYWFLQKPGQSPQLLIYRMSNLASGVPDRFSGSGSGTDFTLTISRVEAEDVGVYYCMQHLEYPFTFGAGTKLEIK , result: ~20 nM
